Reported pEC50 values are given for each entry in this list.
test system: human beta-coronavirus OC43; experiment: microbe, parasite or virus in culture; assay type: cell-based; settings: Betacoronavirus 1, OC43, HeLa, 144 h, OC43 in HeLa cells, 6 days at 33° C., class symbols; read-out: EC50
pEC50: −log10 of the molar value.

molecule | pEC50
O=C1NCC[C@H]1C[C@H](NC(=O)[C@@H]1[C@H]2CCC[C@H]2CN1C(=O)c1cc2c(Cl)ccc(OCc3ccccc3)c2[nH]1)C(=O)CO | > 7.00
COc1ccc2[nH]c(C(=O)N3C[C@@H]4CCC[C@@H]4[C@H]3C(=O)N[C@@H](C[C@@H]3CCNC3=O)C(=O)CO)cc2c1OC | 5.00 to 6.00
O=C1NCC[C@H]1C[C@H](NC(=O)[C@@H]1[C@H]2CCC[C@H]2CN1C(=O)c1cc2c(Cl)c(F)c(Cl)cc2[nH]1)C(=O)CO | > 7.00
COc1cccc2[nH]c(C(=O)N3C[C@@H]4CCC[C@@H]4[C@H]3C(=O)N[C@@H](C[C@@H]3CCCNC3=O)C(O)S(=O)(=O)O)cc12 (some centres unmarked) | 6.00 to 7.00
COc1cccc2[nH]c(C(=O)N3C[C@@H]4CCCC[C@@H]4[C@H]3C(=O)N[C@@H](C[C@@H]3CCCNC3=O)C(=O)COCc3ccccc3)cc12 (single isomer, unassigned) | 6.00 to 7.00
COc1cccc2[nH]c(C(=O)N3C[C@H]4[C@@H]([C@H]3C(=O)N[C@@H](C[C@@H]3CCCNC3=O)C(=O)COCc3ccccc3)C4(C)C)cc12 [Compound 49A] | 6.00 to 7.00
COc1cccc2[nH]c(C(=O)N3CCc4ccccc4[C@H]3C(=O)N[C@@H](C[C@@H]3CCNC3=O)C(=O)C(=O)NC3CC3)cc12 | 5.00 to 6.00
COc1cccc2[nH]c(C(=O)N3C[C@]4(C[C@H]3C(=O)NC(C[C@@H]3CCCNC3=O)C(=O)C(=O)NC3CC3)CC4(F)F)cc12 (some centres unmarked) | 6.00 to 7.00
O=C1NCC[C@H]1C[C@H](NC(=O)[C@@H]1[C@H]2CCC[C@H]2CN1C(=O)c1ccc(-c2ccccc2)[nH]1)C(=O)CO | 6.00 to 7.00
CC1(C)[C@@H]2[C@@H](C(=O)N[C@@H](C[C@@H]3CCNC3=O)C(=O)CO)N(C(=O)c3cc4c(Cl)cc(Cl)cc4[nH]3)C[C@@H]21 | 6.00 to 7.00
COc1cccc2[nH]c(C(=O)N3C[C@@H]4CCC[C@@H]4[C@H]3C(=O)N[C@@H](C[C@@H]3CCNC3=O)C(=O)c3nc4ccccc4o3)cc12 | 6.00 to 7.00
O=C1NCC[C@H]1C[C@H](NC(=O)[C@@H]1[C@@H]2[C@H](CN1C(=O)c1cc3c(Cl)cc(Cl)cc3[nH]1)[C@@H]1C=C[C@H]2C1)C(=O)CO | > 7.00
CNc1cccc2[nH]c(C(=O)N3C[C@@H]4CCC[C@@H]4[C@H]3C(=O)N[C@@H](C[C@@H]3CCNC3=O)C(=O)CO)cc12 | 5.00 to 6.00
C=C[C@@H]1C[C@@H](C(=O)N[C@@H](C[C@@H]2CCNC2=O)C(=O)C(=O)NCc2ccccc2)N(C(=O)c2cc3ccccc3[nH]2)C1 | 6.00 to 7.00
COc1cccc2[nH]c(C(=O)N3C[C@@H]4CCC[C@@H]4[C@H]3C(=O)NC(C[C@@H]3CCNC3=O)C(=O)C(C)O)cc12 (some centres unmarked) | 5.00 to 6.00
COc1cccc2[nH]c(C(=O)N3C[C@@H]4CCC[C@@H]4[C@H]3C(=O)NC(CN3CCCC3=O)C(=O)C(=O)NC3CC3)cc12 (single isomer, unassigned) [Compound 113A] | 5.00 to 6.00
O=C(NCCOCC1CCCC1)C(=O)[C@H](C[C@@H]1CCNC1=O)NC(=O)[C@@H]1[C@H]2CCC[C@H]2CN1C(=O)c1cc2c(Cl)cc(Cl)cc2[nH]1 | 6.00 to 7.00
O=C(NC1CC1)C(=O)[C@H](C[C@@H]1CCNC1=O)NC(=O)[C@@H]1CC2(CCN1C(=O)c1cc3cc(F)ccc3[nH]1)CC2 | 6.00 to 7.00
O=C(NCc1ccccc1)C(=O)[C@H](C[C@@H]1CCNC1=O)NC(=O)[C@@H]1CC2(CCN1C(=O)c1cc3ccccc3[nH]1)CC2 | 6.00 to 7.00
O=C1NCC[C@H]1C[C@H](NC(=O)[C@@H]1[C@H]2CCC[C@H]2CN1C(=O)c1cc2c(OC(F)F)cccc2[nH]1)C(=O)CO | > 7.00
N#Cc1cccc2[nH]c(C(=O)N3C[C@@H]4CCC[C@@H]4[C@H]3C(=O)N[C@@H](C[C@@H]3CCNC3=O)C(=O)CO)cc12 | 5.00 to 6.00
Cn1c(C(=O)N2CCC3(CC3)C[C@H]2C(=O)N[C@@H](C[C@@H]2CCNC2=O)C(=O)C(=O)NC2CC2)cc2ccccc21 | 5.00 to 6.00
COc1cccc2[nH]c(C(=O)N3C[C@@H]4CCCC[C@@H]4[C@H]3C(=O)N[C@@H](C[C@@H]3CCCNC3=O)C(=O)CO)cc12 | 6.00 to 7.00

These entries and their values trace back to patent US11952365B2.
